test_system: Muscarinic acetylcholine receptor M1 (Homo sapiens)
Sequence (P11229 whole entry): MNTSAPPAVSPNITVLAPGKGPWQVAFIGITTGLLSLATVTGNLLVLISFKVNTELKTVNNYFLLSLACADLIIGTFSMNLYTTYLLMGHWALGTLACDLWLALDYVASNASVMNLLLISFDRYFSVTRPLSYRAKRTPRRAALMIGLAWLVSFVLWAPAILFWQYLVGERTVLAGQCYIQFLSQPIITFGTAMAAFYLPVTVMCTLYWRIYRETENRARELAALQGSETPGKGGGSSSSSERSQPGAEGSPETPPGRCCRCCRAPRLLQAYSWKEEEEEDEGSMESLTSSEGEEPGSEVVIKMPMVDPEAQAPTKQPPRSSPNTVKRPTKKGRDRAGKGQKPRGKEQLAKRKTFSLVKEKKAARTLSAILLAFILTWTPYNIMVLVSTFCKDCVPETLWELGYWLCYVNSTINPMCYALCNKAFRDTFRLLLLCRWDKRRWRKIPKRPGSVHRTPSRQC
measurement_protocol: Positive allosteric modulator activity at human muscarinic receptor subtype 1 expressed in CHO-K1 cells by calcium mobilization assay relative to acetylcholine
Assay type: functional, cell-based
The source made the active and inactive calls. No cut-off for these calls is given here.
observation_type: Emax

// worked examples, Emax included
Cn1cc(-c2ccc(Cn3cc4c(=O)[nH]nc-4c4ccccc43)c(F)c2)cn1 = 89%
Cc1ccc(Cn2nc3c4ccccc4n(Cc4ccc(-c5cnn(C)c5)cc4F)cc-3c2=O)c(C)c1 = 74%
Cc1ccc(Cn2cc3c(=O)n(Cc4ccc(C)cc4C)nc-3c3ccccc32)cc1 = inactive
Cc1ccc(C)c(Cn2nc3c4ccccc4n(Cc4ccccc4)cc-3c2=O)c1 = 40%

In: Which value of Emax has been reported for Cc1ccc(Cn2nc3c4ccccc4n(Cc4cccnc4)cc-3c2=O)c(C)c1 in the records?
Out: 75%

In: Which value of Emax has been reported for O=C1C(=O)N(Cc2ccccc2)c2ccccc21 in the records?
Out: 34%

----------
test_system: Muscarinic acetylcholine receptor M1 (Homo sapiens)
measurement_protocol: Positive allosteric modulator activity at human muscarinic receptor subtype 1 expressed in CHO-K1 cells by calcium mobilization assay
Type: functional, cell-based
test_settings: read-out: EC50
pEC50: −log10 of the molar value.
observation_type: pEC50

Cc1ccc(C)c(Cn2nc3c4ccccc4[nH]cc-3c2=O)c1 = < 4.52

In: Which value of pEC50 has been reported for O=c1c2cn(Cc3ccccc3)c3ccccc3c-2nn1Cc1ccccc1F in the records?
Out: 6.00

In: Which value of pEC50 has been reported for O=c1c2cn(Cc3ccccc3)c3ccccc3c-2nn1Cc1ccncc1 in the records?
Out: < 5.00

In: Which value of pEC50 has been reported for Cn1nc2c3ccccc3n(Cc3ccccc3)cc-2c1=O in the records?
Out: < 5.00

In: Which value of pEC50 has been reported for O=c1c2cn(Cc3ccc(-n4cccn4)cc3)c3ccccc3c-2nn1Cc1ccccc1 in the records?
Out: < 5.00

In: Which value of pEC50 has been reported for O=c1c2cn(Cc3ccccc3)c3ccccc3c-2nn1Cc1ccccn1 in the records?
Out: < 5.00

----------
test_system: Muscarinic acetylcholine receptor M1 (Homo sapiens)
measurement_protocol: Positive allosteric modulator activity at human muscarinic receptor subtype 1 expressed in CHO-K1 cells by calcium mobilization assay relative to acetylcholine
Type: functional, cell-based
Active and inactive are the calls of the source. No cut-off for these calls is given here.
observation_type: Emax

// worked examples, Emax included
O=c1c2cn(Cc3ccccc3)c3ccccc3c-2nn1Cc1cccnc1 = 65%
COc1ccc(Cn2cc3c(=O)n(Cc4ccc(C)cc4C)nc-3c3ccccc32)c(F)c1 = inactive
Cc1ccccc1Cn1nc2c3ccccc3n(Cc3ccccc3)cc-2c1=O = 47%
Cc1ccc(Cn2nc3c4ccccc4n(Cc4ccc(F)cc4)cc-3c2=O)c(C)c1 = 47%

In: // lookup Emax | system=Muscarinic acetylcholine receptor M1 (Homo sapiens) | key= Cc1ccc(Cn2nc3c4ccccc4n(Cc4ccccc4F)cc-3c2=O)c(C)c1
Out: 46%

In: // lookup Emax | system=Muscarinic acetylcholine receptor M1 (Homo sapiens) | key= O=c1[nH]nc2c3ccccc3n(Cc3ccc(-n4cccn4)cc3)cc1-2
Out: 83%

In: // lookup Emax | system=Muscarinic acetylcholine receptor M1 (Homo sapiens) | key= Cc1cccc(Cn2cc3c(=O)n(Cc4ccc(C)cc4C)nc-3c3ccccc32)c1
Out: inactive

In: // lookup Emax | system=Muscarinic acetylcholine receptor M1 (Homo sapiens) | key= Cc1ccc(Cn2nc3c4ccccc4n(Cc4ccncc4)cc-3c2=O)c(C)c1
Out: 82%

In: // lookup Emax | system=Muscarinic acetylcholine receptor M1 (Homo sapiens) | key= Cc1ccc(Cn2nc3c4ccccc4n(Cc4ccccc4C)cc-3c2=O)c(C)c1
Out: inactive
